# STUDY TARGET: Collagenase 3 (Homo sapiens, UniProt P45452)
ENDPOINT LABEL: Ki (nM)
A number alone suffices; assume nM.

Exercise: Missing value: Ki, Collagenase 3 (Homo sapiens, UniProt P45452), entry NC(=O)[C@H](CCC(=O)O)NC(=O)[C@H](CCC(=O)O)NC(=O)[C@H](Cc1cc(-c2ccc(-c3cccc(Cl)c3)cc2)no1)CP(=O)(O)c1ccc(Br)cc1 . Fill in?
Key: 139
